Assay: Human intestinal S9 fraction in vitro stability assay (HInt)
Assay type: in vitro ADME
Conditions: human intestinal S9 0.1 mg/mL, 1 μM test compound, pH 7.4, 37° C., substrate depletion
MEASURED ENDPOINT: microsomal CLint at 1 μM

Recorded microsomal CLint at 1 μM, per entry:
{"STRUCTURE": "CCOC(=O)O[C@@H](C)n1nnnc1-c1c(-c2ccc(C(=O)N(c3ncccc3C)[C@@H]3CCCNC3)cc2)cnn1C", "MEASURED ENDPOINT": "microsomal CLint at 1 μM", "MEASURED RESULT": "< 57.8 µL/min/mg"}
{"STRUCTURE": "CCOC(=O)O[C@H](C)n1nnnc1-c1c(-c2ccc(C(=O)N(c3ncccc3Cl)[C@@H]3CCCNC3)cc2F)cnn1C", "MEASURED ENDPOINT": "microsomal CLint at 1 μM", "MEASURED RESULT": "620 µL/min/mg"}
{"STRUCTURE": "CCOC(=O)O[C@H](C)n1nnnc1-c1c(-c2ccc(C(=O)N(c3ncccc3C)[C@@H]3CCCNC3)cc2)cnn1C", "MEASURED ENDPOINT": "microsomal CLint at 1 μM", "MEASURED RESULT": "86.9 µL/min/mg"}
{"STRUCTURE": "CCOC(=O)O[C@@H](C)n1nnnc1-c1c(-c2ccc(C(=O)N(c3ncccc3Cl)[C@@H]3CCCNC3)cc2F)cnn1C", "MEASURED ENDPOINT": "microsomal CLint at 1 μM", "MEASURED RESULT": "< 82.9 µL/min/mg"}

q: Give a short answer stating reported microsomal CLint at 1 μM for `CCOC(=O)O[C@@H](C)n1nnnc1-c1c(-c2ccc(C(=O)N(c3ncccc3C)[C@@H]3CCCNC3)nc2)cnn1C` .
a: < 57.8 µL/min/mg

q: Look up and report measured microsomal CLint at 1 μM for this entry: `CCOC(=O)O[C@@H](C)n1nnnc1-c1c(-c2ccc(C(=O)N(c3ncccc3Cl)[C@@H]3CCCNC3)nc2)cnn1C`
a: < 57.8 µL/min/mg

q: Provide one value: measured microsomal CLint at 1 μM of `CCOC(=O)O[C@@H](C)n1nnnc1-c1c(-c2ccc(C(=O)N(c3ncccc3C)[C@@H]3CCCNC3)cc2F)cnn1C`
a: 116 µL/min/mg

q: Tell me its microsomal CLint at 1 μM given `CCOC(=O)O[C@@H](C)n1nnnc1-c1c(-c2ccc(C(=O)N(c3ncccc3Cl)[C@@H]3CCCNC3)cc2)cnn1C` as the entry.
a: < 57.8 µL/min/mg

Source listed as patent US20160102074A1.
